target: Methionine sulfoxide reductase A (Bos taurus); assay: concentration-response MsrA enzyme activation – biochemical, absorbance, bovine, late stage, dose response (AID 624497); details: purified MsrA enzyme activity, absorbance read-out
Calls of active or inactive are those of the source. The rule behind the calls is not given here.
The reply should be one of these categories: active, inactive

CC(C)(C)c1ccc(NC(=O)COC(=O)c2ccc([N+](=O)[O-])s2)cc1    inactive
CS(=O)(=O)c1ccc(N)c(SSc2cc(S(C)(=O)=O)ccc2N)c1    inactive
OCC[n+]1c2ccccc2nc2ccc(N3CCOCC3)cc21    inactive

Could you kindly confirm the outcome this assay logged for `COc1ccc(S(=O)(=O)N2CCOCC2)cc1NC(=O)COC(=O)c1ccc([N+](=O)[O-])s1` ?
inactive

Could you kindly confirm the outcome this assay logged for `NC1=C(Br)C(=O)c2ccccc2C1=O` ?
inactive

Could you kindly confirm the outcome this assay logged for `O=C1C=C(Nc2ccccc2O)c2ccccc2C1=O` ?
inactive

Could you kindly confirm the outcome this assay logged for `O=C(COC(=O)c1ccc([N+](=O)[O-])s1)NCCc1ccccc1` ?
inactive

Could you kindly confirm the outcome this assay logged for `C[n+]1c2ccccc2nc2ccc(NCCO)cc21` ?
active

Could you kindly confirm the outcome this assay logged for `COc1ccccc1NC(=O)COC(=O)c1ccc([N+](=O)[O-])s1` ?
inactive

Values were extracted from PubChem BioAssay AID624497.
